# REPORTED_CONDITIONS: Liquid; Ebulliometric method (Recirculating still)
Numbers after ± are expanded uncertainties.
MEASUREMENT_LABEL: Normal boiling temperature
Please don't drop the unit; write it after the number.

CCC(C)O (centres undefined): 99.50 ± 0.22 °C
CC(C)(C)O: 82.40 ± 0.22 °C
CC(C)CO: 107.90 ± 0.22 °C

Now for another entry.
Give the measured Normal boiling temperature of `C1COCCO1` .
101.30 ± 0.22 °C

---

Would you kindly list refractive index for each of these compounds?
# ASSAY_COMMENT: refractive index (Na D-line) (dimensionless)
# REPORTED_CONDITIONS: 298.15 K; 101.33 kPa; Liquid; Standard Abbe refractometry
Numbers only.

Sample records with refractive index:
CCC(C)O (centres undefined): 1.3955
CC(C)CO: 1.3939
C1COCCO1: 1.4205

Now for another entry.
Give the measured refractive index of `CC(C)(C)O` .
1.3823
